Recorded -logMIC for the following molecules
- Test system: Staphylococcus aureus
- ASSAY COMMENT: Antibacterial activities against Staphylococcus aureus ATCC 2943 after 16 to 24 hrs by twofold serial dilution method
- Assay type: functional

{"MOLECULE": "CCOC(=O)C1(C(C)=O)C(c2ccc(N(C)C)cc2)N1c1ccc(/N=N/c2ccc([N+](=O)[O-])cc2)cc1 (stereo not drawn)", "-logMIC": 4.445}
{"MOLECULE": "CCOC(=O)C1(C(C)=O)C(c2ccc(N(C)C)cc2)N1c1ccc(/N=N/c2ccc(C(=O)O)cc2)cc1 (stereo not drawn)", "-logMIC": 4.357}
{"MOLECULE": "CCOC(=O)C1(C(C)=O)C(c2ccc(N(C)C)cc2)N1c1ccc(/N=N/c2ccc(O)cc2)cc1 (stereo not drawn)", "-logMIC": 4.13}
{"MOLECULE": "CCOC(=O)C1(C(C)=O)C(c2ccc(N(C)C)cc2)N1c1ccc(/N=N/c2cccc([N+](=O)[O-])c2)cc1 (stereo not drawn)", "-logMIC": 4.469}
{"MOLECULE": "CCOC(=O)C1(C(C)=O)C(c2ccc(N(C)C)cc2)N1c1ccc(/N=N/c2cccc(OC)c2)cc1 (stereo not drawn)", "-logMIC": 4.431}
{"MOLECULE": "CCOC(=O)C1(C(C)=O)C(c2ccc(N(C)C)cc2)N1c1ccc(/N=N/c2ccccc2)cc1 (stereo not drawn)", "-logMIC": 4.079}
{"MOLECULE": "CCOC(=O)C1(C(C)=O)C(c2ccc(N(C)C)cc2)N1c1ccc(/N=N/c2cccc(Cl)c2)cc1 (stereo not drawn)", "-logMIC": 4.329}
{"MOLECULE": "CCOC(=O)C1(C(C)=O)C(c2ccc(N(C)C)cc2)N1c1ccc(/N=N/c2ccc(Cl)cc2)cc1 (stereo not drawn)", "-logMIC": 4.276}

Value source: ChEMBL document CHEMBL1152835
